Target: Lp-PLA2 in rabbit serum (Oryctolagus cuniculus)
Construct: from tissue; host or cells: rabbit serum
Assay: In vitro inhibitory activity towards the enzyme Lp-PLA2 in rabbit serum, [3H]PAF substrate
Format: biochemical
Conditions: 100 nM; rabbit serum; read-out: inhibition, %
Readout type: inhibition at 0.1 µM

inhibition at 0.1 µM in this record for Cn1cc(Cc2cn(Cc3nccn3Cc3ccc(-c4ccc(C(F)(F)F)cc4)cc3)c(SCc3ccc(F)cc3)nc2=O)cn1 : 12.6%

inhibition at 0.1 µM in this record for O=c1nc(SCc2ccc(F)cc2)n(Cc2ncn(Cc3ccc(-c4ccc(C(F)(F)F)cc4)cc3)n2)c2c1CCC2 : 61%

inhibition at 0.1 µM in this record for O=c1nc(SCc2ccc(F)cc2)n(Cc2nnc(CSCc3ccc(F)cc3)n2Cc2ccc(-c3ccc(C(F)(F)F)cc3)cc2)c2c1CCC2 : 78%

inhibition at 0.1 µM in this record for O=c1nc(SCc2ccc(F)cc2)n(Cc2ncc(CN3CCCC3)n2Cc2ccc(-c3ccc(C(F)(F)F)cc3)cc2)c2c1CCC2 : 78.6%

inhibition at 0.1 µM in this record for CN(Cc1nnc(Cn2c(SCc3ccc(F)cc3)nc(=O)c3c2CCC3)n1Cc1ccc(-c2ccc(C(F)(F)F)cc2)cc1)C1CC1 : 86%

inhibition at 0.1 µM in this record for O=C1NCCN1Cc1nnc(Cn2c(SCc3ccc(F)cc3)nc(=O)c3c2CCC3)n1Cc1ccc(-c2ccc(C(F)(F)F)cc2)cc1 : 63%

---

Molecular target: Lp-PLA2 in rabbit serum (Oryctolagus cuniculus, UniProt G1SE06)
Construct: from tissue; host or cells: rabbit serum
Sequence (G1SE06 22-423): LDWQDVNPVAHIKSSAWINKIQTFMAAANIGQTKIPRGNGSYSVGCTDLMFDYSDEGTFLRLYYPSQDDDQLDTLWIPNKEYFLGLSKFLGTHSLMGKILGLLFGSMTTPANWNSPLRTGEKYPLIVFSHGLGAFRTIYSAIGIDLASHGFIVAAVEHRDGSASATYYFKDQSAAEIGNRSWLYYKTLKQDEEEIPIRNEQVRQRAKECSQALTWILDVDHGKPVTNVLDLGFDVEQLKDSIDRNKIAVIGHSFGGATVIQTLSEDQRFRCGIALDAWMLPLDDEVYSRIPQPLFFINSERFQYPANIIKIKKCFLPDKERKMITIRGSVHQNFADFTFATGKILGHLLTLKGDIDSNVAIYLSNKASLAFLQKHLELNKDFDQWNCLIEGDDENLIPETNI
Assay: In vitro inhibitory activity towards the enzyme Lp-PLA2 in rabbit serum, [3H]PAF substrate
Format: biochemical
Details: 100 nM; rabbit serum; read-out: inhibition, %
Readout type: inhibition at 0.1 µM (%)
Give the quantity in %, number only.

inhibition at 0.1 µM in this record for O=c1nc(SCc2ccc(F)cc2)n(Cc2nnc(CN3CCC(F)(F)C3)n2Cc2ccc(-c3ccc(C(F)(F)F)cc3)cc2)c2c1CCC2 : 67

inhibition at 0.1 µM in this record for Cc1nnc(Cn2c(SCc3ccc(F)cc3)nc(=O)c3c2CCC3)n1Cc1ccc(-c2ccc(C(F)(F)F)cc2)cc1 : 78.9

inhibition at 0.1 µM in this record for O=c1nc(SCc2ccc(F)cc2)n(Cc2nc3ccccc3n2Cc2ccc(-c3ccc(C(F)(F)F)cc3)cc2)c2c1CCC2 : 43.2

inhibition at 0.1 µM in this record for CCN(CC)CCOCc1nnc(Cn2c(SCc3ccc(F)cc3)nc(=O)c3c2CCC3)n1Cc1ccc(-c2ccc(C(F)(F)F)cc2)cc1 : 92

inhibition at 0.1 µM in this record for O=c1nc(SCc2ccc(F)cc2)n(Cc2nnc(COCCO)n2Cc2ccc(-c3ccc(C(F)(F)F)cc3)cc2)c2c1CCC2 : 88

inhibition at 0.1 µM in this record for CN(C)Cc1cnc(Cn2c(SCc3ccc(F)cc3)nc(=O)c3c2CCC3)n1Cc1ccc(-c2ccc(C(F)(F)F)cc2)cc1 : 87.1

inhibition at 0.1 µM in this record for COC(=O)C(C)(C)NCc1nnc(Cn2c(SCc3ccc(F)cc3)nc(=O)c3c2CCC3)n1Cc1ccc(-c2ccc(C(F)(F)F)cc2)cc1 : 77

inhibition at 0.1 µM in this record for CCN1CCCC1CNCc1nnc(Cn2c(SCc3ccc(F)cc3)nc(=O)c3c2CCC3)n1Cc1ccc(-c2ccc(C(F)(F)F)cc2)cc1 (racemic) : 93

inhibition at 0.1 µM in this record for O=c1nc(SCc2ccc(F)cc2)n(Cc2ncc(CN3CCN(Cc4ccccc4)CC3)n2Cc2ccc(-c3ccc(C(F)(F)F)cc3)cc2)c2c1CCC2 : 87

inhibition at 0.1 µM in this record for Cc1cnc(Cn2cc(Cc3cnn(C)c3)c(=O)nc2SCc2ccc(F)cc2)n1Cc1ccc(-c2ccc(C(F)(F)F)cc2)cc1 : 12.6

inhibition at 0.1 µM in this record for O=c1nc(SCc2ccc(F)cc2)n(Cc2nnc(CS(=O)(=O)Cc3ccccc3)n2Cc2ccc(-c3ccc(C(F)(F)F)cc3)cc2)c2c1CCC2 : 89

inhibition at 0.1 µM in this record for C[N+](C)(C)Cc1nnc(Cn2c(SCc3ccc(F)cc3)nc(=O)c3c2CCC3)n1Cc1ccc(-c2ccc(C(F)(F)F)cc2)cc1 : 93

inhibition at 0.1 µM in this record for CN(CCN1CCCCC1)Cc1onc(Cn2c(SCc3ccc(F)cc3)nc(=O)c3c2CCC3)c1Cc1ccc(-c2ccc(C(F)(F)F)cc2)cc1 : 99

---

Molecular target: Lp-PLA2 in rabbit serum (Oryctolagus cuniculus)
Construct: from tissue; host or cells: rabbit serum
Assay: In vitro inhibitory activity towards the enzyme Lp-PLA2 in rabbit serum, [3H]PAF substrate
Format: biochemical
Conditions: 10 μM; rabbit serum
Decide using inhibition at 10 µM: a value greater than or equal to 50% is T, a smaller one is F.

Please check the record CCCCCCCCCCC1NC(Cn2c(SCc3ccc(F)cc3)nc(=O)c3c2CCC3)=NO1 (stereo not shown) and state if its inhibition at 10 µM is at or above 50%.
T

Please check the record O=c1nc(SCc2ccc(F)cc2)n(CC2=NOC(c3ccc(-c4ccc(C(F)(F)F)cc4)cc3)N2CCN2CCOCC2)c2c1CCC2 (stereo not shown) and state if its inhibition at 10 µM is at or above 50%.
T

Please check the record CCCCCCCCCCCCn1ccnc1Cn1c(SCc2ccc(F)cc2)nc(=O)c2c1CCC2 and state if its inhibition at 10 µM is at or above 50%.
T

Please check the record CCCCCCCC1NC(Cn2c(SCc3ccc(F)cc3)cc(=O)c3ccccc32)=NO1 (stereo not shown) and state if its inhibition at 10 µM is at or above 50%.
F

Please check the record O=c1nc(SCc2cccc(F)c2F)n(CC2=NOC(c3ccc(-c4ccc(C(F)(F)F)cc4)cc3)N2CCN2CCOCC2)c2c1CCC2 (stereo not shown) and state if its inhibition at 10 µM is at or above 50%.
T

Please check the record CCn1c(Cn2c(SCc3ccc(F)cc3)nc(=O)c3c2CCC3)nnc1-c1ccc(-c2ccc(C(F)(F)F)cc2)cc1 and state if its inhibition at 10 µM is at or above 50%.
F

Please check the record O=c1nc(SCc2ccc(F)cc2)n(Cc2ncc(-c3ccccc3)[nH]2)c2c1CCC2 and state if its inhibition at 10 µM is at or above 50%.
F

Please check the record CCn1c(Cn2cc(Cc3cnn(C)c3)c(=O)nc2SCc2ccc(F)cc2)nnc1-c1ccc(-c2ccc(C(F)(F)F)cc2)cc1 and state if its inhibition at 10 µM is at or above 50%.
T

Please check the record CCn1c(CCCc2ccccc2)nnc1Cn1c(SCc2ccc(F)cc2)nc(=O)c2c1CCC2 and state if its inhibition at 10 µM is at or above 50%.
F

Please check the record CCCC1NC(Cn2c(SCc3ccc(F)cc3)nc(=O)c3c2CCC3)=NO1 (stereo not shown) and state if its inhibition at 10 µM is at or above 50%.
T

Please check the record O=c1nc(SCc2ccc(F)cc2)n(CC2=NOC(c3ccc(-c4ccc(C(F)(F)F)cc4)cc3)N2)c2c1CCC2 (stereo not shown) and state if its inhibition at 10 µM is at or above 50%.
T

Please check the record CCn1c(Cc2ccc(-c3ccc(C(F)(F)F)cc3)cc2)nnc1Cn1c(SCc2ccc(F)cc2)nc(=O)c2c1CCC2 and state if its inhibition at 10 µM is at or above 50%.
F

---

Molecular target: Lp-PLA2 in human serum (Homo sapiens, UniProt Q13093)
Construct: from tissue
Sequence (Q13093 22-441): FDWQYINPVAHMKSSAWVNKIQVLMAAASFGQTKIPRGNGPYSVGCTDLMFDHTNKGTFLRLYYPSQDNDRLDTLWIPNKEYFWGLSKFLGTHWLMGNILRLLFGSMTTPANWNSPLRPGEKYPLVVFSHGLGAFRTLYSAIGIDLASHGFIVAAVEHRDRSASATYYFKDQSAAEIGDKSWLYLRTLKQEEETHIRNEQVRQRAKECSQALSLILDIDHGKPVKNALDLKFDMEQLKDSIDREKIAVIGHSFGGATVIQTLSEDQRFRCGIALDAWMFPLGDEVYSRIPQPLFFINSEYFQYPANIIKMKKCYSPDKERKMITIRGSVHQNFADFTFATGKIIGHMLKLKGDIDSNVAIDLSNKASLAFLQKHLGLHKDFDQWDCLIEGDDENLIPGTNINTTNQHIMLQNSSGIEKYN
Experiment: In vitro inhibitory activity towards the enzyme Lp-PLA2 in human serum, [3H]PAF substrate
Assay type: biochemical
Details: 10 nM; human serum; read-out: inhibition, %
Answer each item with its documented inhibition at 0.01 µM.

inhibition at 0.01 µM in this record for CN(C)CCNCc1nnc(Cn2c(SCc3ccc(F)cc3)nc(=O)c3c2CCC3)n1Cc1ccc(-c2ccc(C(F)(F)F)cc2)cc1 : 72%

inhibition at 0.01 µM in this record for CCN(CC)Cc1onc(Cn2c(SCc3ccc(F)cc3)nc(=O)c3c2CCC3)c1Cc1ccc(-c2ccc(C(F)(F)F)cc2)cc1 : 96%

inhibition at 0.01 µM in this record for C[N+](C)(CCO)Cc1nnc(Cn2c(SCc3ccc(F)cc3)nc(=O)c3c2CCC3)n1Cc1ccc(-c2ccc(C(F)(F)F)cc2)cc1 : 92%

inhibition at 0.01 µM in this record for O=c1nc(SCc2ccc(F)cc2)n(Cc2ncc(CN3CCN(Cc4ccccc4)CC3)n2Cc2ccc(-c3ccc(C(F)(F)F)cc3)cc2)c2c1CCC2 : 56%

inhibition at 0.01 µM in this record for CCN1CCC[C@H]1CNCc1nnc(Cn2c(SCc3ccc(F)cc3)nc(=O)c3c2CCC3)n1Cc1ccc(-c2ccc(C(F)(F)F)cc2)cc1 : 80%

inhibition at 0.01 µM in this record for O=c1nc(SCc2ccc(F)cc2)n(Cc2nnc(C3CC3)n2Cc2ccc(-c3ccc(C(F)(F)F)cc3)cc2)c2c1CCC2 : 93%
